Where do the numbers come from? From ChEMBL document CHEMBL5729487.

# system_name: Sal-like protein 4 (Homo sapiens)
# Sequence (Q9UJQ4 whole entry): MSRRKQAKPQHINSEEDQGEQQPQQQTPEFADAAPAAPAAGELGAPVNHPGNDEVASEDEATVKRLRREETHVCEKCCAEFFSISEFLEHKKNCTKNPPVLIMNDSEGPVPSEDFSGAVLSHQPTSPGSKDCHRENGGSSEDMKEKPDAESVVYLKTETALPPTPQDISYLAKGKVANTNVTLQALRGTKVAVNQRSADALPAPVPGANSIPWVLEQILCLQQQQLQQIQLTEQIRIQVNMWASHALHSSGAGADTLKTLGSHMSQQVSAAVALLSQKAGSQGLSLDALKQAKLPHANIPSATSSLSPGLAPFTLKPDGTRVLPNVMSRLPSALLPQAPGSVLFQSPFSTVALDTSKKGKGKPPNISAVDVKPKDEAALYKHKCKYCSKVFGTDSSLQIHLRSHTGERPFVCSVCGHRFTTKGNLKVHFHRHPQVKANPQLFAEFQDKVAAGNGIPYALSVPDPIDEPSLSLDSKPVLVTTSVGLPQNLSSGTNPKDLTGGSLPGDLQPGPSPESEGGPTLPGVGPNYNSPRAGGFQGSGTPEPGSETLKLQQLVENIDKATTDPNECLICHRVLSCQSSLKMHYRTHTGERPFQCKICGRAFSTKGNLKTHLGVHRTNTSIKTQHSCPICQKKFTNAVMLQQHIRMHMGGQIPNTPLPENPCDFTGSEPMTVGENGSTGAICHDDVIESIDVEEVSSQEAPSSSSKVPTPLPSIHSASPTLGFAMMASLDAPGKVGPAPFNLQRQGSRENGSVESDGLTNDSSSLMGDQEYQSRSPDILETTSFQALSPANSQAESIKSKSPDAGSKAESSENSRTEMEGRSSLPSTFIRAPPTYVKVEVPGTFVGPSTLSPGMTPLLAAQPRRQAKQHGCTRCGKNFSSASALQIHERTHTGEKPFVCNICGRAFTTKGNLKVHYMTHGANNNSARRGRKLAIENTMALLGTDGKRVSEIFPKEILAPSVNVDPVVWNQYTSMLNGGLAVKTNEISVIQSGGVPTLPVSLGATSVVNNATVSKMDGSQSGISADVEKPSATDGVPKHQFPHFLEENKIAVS
pIC50: −log10 of the molar value.
measure: pIC50

In the examples that follow, each entry is paired with its recorded pIC50.
[
  {
    "compound_smiles": "COc1ccc(CCNc2c(-c3c(O)ccc4ccccc34)nc3cnccn23)cc1OC",
    "pIC50": 5.60
  },
  {
    "compound_smiles": "N#Cc1ccc(Nc2c(-c3c(O)ccc4ccccc34)nc3cnccn23)cc1",
    "pIC50": 6.30
  }
]

(a) Oc1ccc2ccccc2c1-c1nc2ccccn2c1NC1CCCCC1
(b) COC(=O)c1cccc(Nc2c(-c3c(O)ccc4ccccc34)nc3cnccn23)c1
Task item: Which of these two has the smaller recorded pIC50: a or b ? Respond with the label that goes with your answer.
Reply: a
